Would you kindly list pIC50 for each of these molecules?
study_target: WEE1 kinase (Homo sapiens)
Construct: purchased CarnaBiosciences, Inc. 05-177
experiment_summary: Inhibitory effect on WEE1 kinase in vitro (ELISA)
Format: biochemical
condition_notes: ATP concentration of Km (12 μM), WEE1 0.15 ng/μL, 60 min, read-out: WEE1 IC50
Where a name gives a salt, the structure may show the parent alone.
Answers are plain numbers, as −log10 of the molar value.

Solved cases (10 shown):
molecule	pIC50
C=CCn1c(=O)c2cnc(Nc3ccc([C@H]4CC[C@@H](N(C)C)CC4)cc3)nc2n1-c1ccc2c(n1)C(O)CC2 (single isomer, unassigned) [Compound I-30-2]	8.18
C=CCn1c(=O)c2cnc(Nc3ccc(N4C[C@H]5CN(CC)C[C@H]5C4)cc3)nc2n1-c1ccc2c(n1)C(O)CC2 (stereo partly shown)	7.93
C=CCn1c(=O)c2cnc(Nc3ccc(N4CCC(N(C)C)CC4)cc3)nc2n1-c1ccc2c(n1)C(O)CCC2 (stereo not shown) [Compound I-28, formate]	8.45
C=CCn1c(=O)c2cnc(Nc3ccc(CCC(=O)N4CCCC4)cc3)nc2n1-c1ccc2c(n1)C(C)(O)CCC2 (stereo not shown)	7.89
C=CCn1c(=O)c2cnc(Nc3ccc(N4CCC5(CC4)CN(C)C5)cc3)nc2n1-c1ccc2c(n1)C(O)CC2 (stereo not shown)	7.95
C=CCn1c(=O)c2cnc(Nc3ccc([C@H]4CC[C@@H](N(C)C)CC4)cc3)nc2n1-c1ccc2c(n1)C(C)(O)CCC2 (single isomer, unassigned) [Compound I-36-2]	8.58
C=CCn1c(=O)c2cnc(Nc3ccc(N4C[C@@H]5CN(C6CCC6)C[C@@H]5C4)cc3)nc2n1-c1ccc2c(n1)C(O)CC2 (stereo partly shown)	8.61
C=CCn1c(=O)c2cnc(Nc3ccc(C4CCC(N(C)C)CC4)cc3)nc2n1-c1ccc2c(n1)C(C)(O)CC2 (stereo not shown)	8.32
C=CCn1c(=O)c2cnc(Nc3ccc(N4CCNCC4)cc3)nc2n1-c1ccc2c(n1)C(C)(O)CCC2 (stereo not shown)	8.69
C=CCn1c(=O)c2cnc(Nc3ccc(N4CC5(CCN(C)CC5)C4)cc3)nc2n1-c1ccc2c(n1)C(O)CC2 (stereo not shown)	8.07

Hi there! I need pIC50 for each item below, if you can.
1. C=CCn1c(=O)c2cnc(Nc3ccc(N4CCC5(CCNC5)CC4)cc3)nc2n1-c1ccc2c(n1)C(O)CCC2 (stereo not shown)
2. C=CCn1c(=O)c2cnc(Nc3ccc(N4CCC5(CC4)CN(C)C5)cc3)nc2n1-c1ccc2c(n1)C(O)CCC2 (stereo not shown)
3. C=CCn1c(=O)c2cnc(Nc3ccc(N4CC5CC4CN5)cc3)nc2n1-c1ccc2c(n1)C(O)CCC2 (stereo not shown)

**Result**
1: 8.45; 2: 8.36; 3: 8.39

----------
study_target: WEE1 kinase (Homo sapiens, UniProt P30291)
Construct: purchased CarnaBiosciences, Inc. 05-177
Sequence (P30291 whole entry): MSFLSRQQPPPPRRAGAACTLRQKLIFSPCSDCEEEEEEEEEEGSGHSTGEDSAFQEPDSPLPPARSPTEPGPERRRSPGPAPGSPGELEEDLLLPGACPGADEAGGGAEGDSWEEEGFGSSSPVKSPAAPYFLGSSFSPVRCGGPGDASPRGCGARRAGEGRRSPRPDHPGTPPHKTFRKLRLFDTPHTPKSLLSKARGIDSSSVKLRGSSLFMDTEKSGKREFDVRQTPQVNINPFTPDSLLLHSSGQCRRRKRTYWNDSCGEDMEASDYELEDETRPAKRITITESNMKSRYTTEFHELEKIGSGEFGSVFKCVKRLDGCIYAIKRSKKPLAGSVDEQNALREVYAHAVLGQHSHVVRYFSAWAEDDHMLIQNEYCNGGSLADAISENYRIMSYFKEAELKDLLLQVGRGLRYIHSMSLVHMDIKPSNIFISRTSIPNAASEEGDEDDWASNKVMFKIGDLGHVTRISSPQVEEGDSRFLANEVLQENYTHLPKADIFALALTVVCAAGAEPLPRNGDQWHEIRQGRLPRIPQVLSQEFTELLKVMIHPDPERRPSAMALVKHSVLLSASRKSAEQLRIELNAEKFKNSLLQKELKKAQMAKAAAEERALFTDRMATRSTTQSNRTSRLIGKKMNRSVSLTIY
experiment_summary: Inhibitory effect on WEE1 kinase in vitro (ELISA)
Type: biochemical
condition_notes: ATP concentration of Km (12 μM), WEE1 0.15 ng/μL, 60 min, read-out: WEE1 IC50
Record form. Attribute: IC50. Fill in for each entry.
Give bare numbers, in nM.

compound	measured_metric	unit_name	val
C=CCn1c(=O)c2cnc(Nc3ccc(N4C[C@H]5CNC[C@H]5C4)cc3)nc2n1-c1ccc2c(n1)C(C)(O)CCC2 (stereo partly shown) [Compound I-33]	IC50	nM	3.48
C=CCn1c(=O)c2cnc(Nc3ccc(N4CCN(CC)CC4)cc3)nc2n1-c1ccc2c(n1)C(O)CC2 (stereo not shown) [Compound I-2]	IC50	nM	2.55
C=CCn1c(=O)c2cnc(Nc3ccc(N4CCC5(CC4)CNC5)cc3)nc2n1-c1ccc2c(n1)C(O)CCC2 (stereo not shown) [Compound I-21]	IC50	nM	5.75
C=CCn1c(=O)c2cnc(Nc3ccc(N4CCOCC4)cc3)nc2n1-c1ccc2c(n1)C(C)(O)CC2 (stereo not shown) [Compound I-15]	IC50	nM	3.85
C=CCn1c(=O)c2cnc(Nc3ccc(CCCN(C)C)cc3)nc2n1-c1ccc2c(n1)C(O)CC2 (stereo not shown) [Compound I-43]	IC50	nM	4.91
C=CCn1c(=O)c2cnc(Nc3ccc(N4C[C@H]5CN(C)C[C@H]5C4)cc3)nc2n1-c1ccc2c(n1)C(C)(O)CCC2 (stereo partly shown) [Compound I-32]	IC50	nM	4.79

Please find the next compound below.
**Query** Using the record for C=CCn1c(=O)c2cnc(Nc3ccc([C@H]4CC[C@@H](N(C)C)CC4)cc3)nc2n1-c1ccc2c(n1)C(O)CC2 (single isomer, unassigned) [Compound I-30-1] , report its IC50.
**Result** 5.86

----------
study_target: WEE1 kinase (Homo sapiens, UniProt P30291)
Construct: purchased CarnaBiosciences, Inc. 05-177
experiment_summary: Inhibitory effect on WEE1 kinase in vitro (ELISA)
Format: biochemical
condition_notes: WEE1 IC50, nM, ATP concentration of Km (12 μM), WEE1 0.15 ng/μL, 60 min
Assignment: determine reported IC50 for the given compounds.
Give bare numbers, in nM.

Worked cases, answers included:
compound	study_target	unit_name	IC50
C=CCn1c(=O)c2cnc(Nc3ccc(N4CCN(C)CC4)cc3)nc2n1-c1ccc2c(n1)C(C)(O)CC2 (stereo not drawn) [Compound I-16]	WEE1 kinase (Homo sapiens, UniProt P30291)	nM	3.99
C=CCn1c(=O)c2cnc(Nc3ccc(N4CCN(C)CC4)cc3)nc2n1-c1ccc2c(n1)C(C)(O)CCC2 (stereo not drawn) [Compound I-19]	WEE1 kinase (Homo sapiens, UniProt P30291)	nM	1.89

**Query** Form field: reported IC50 of C=CCn1c(=O)c2cnc(Nc3ccc(N4CCN(C)CC4)cc3)nc2n1-c1ccc2c(n1)C(O)CC2 (stereo not drawn) [Compound I-1]
**Result** 2.85

----------
study_target: WEE1 kinase (Homo sapiens)
Construct: purchased CarnaBiosciences, Inc. 05-177
experiment_summary: Inhibitory effect on WEE1 kinase in vitro (ELISA)
Assay type: biochemical
condition_notes: ATP concentration of Km (12 μM), WEE1 0.15 ng/μL, 60 min, read-out: WEE1 IC50
Cut-off 4 nM on IC50: below means yes (1), at or above means no (0).

molecule	study_target	class_assignment
C=CCn1c(=O)c2cnc(Nc3ccc(N4CCC5(CCN(C)CC5)CC4)cc3)nc2n1-c1ccc2c(n1)C(O)CC2 (centres unmarked) [Compound I-9]	WEE1 kinase (Homo sapiens)	yes (1)
C=CCn1c(=O)c2cnc(Nc3ccc(CN4CCN(C)CC4)cc3)nc2n1-c1ccc2c(n1)C(O)CC2 (centres unmarked) [Compound I-7]	WEE1 kinase (Homo sapiens)	no (0)
C=CCn1c(=O)c2cnc(Nc3ccc(N4CC5(CCN(C)CC5)C4)cc3)nc2n1-c1ccc2c(n1)C(C)(O)CC2 (centres unmarked) [Compound I-14]	WEE1 kinase (Homo sapiens)	yes (1)
C=CCn1c(=O)c2cnc(Nc3ccc([C@H]4CC[C@@H](N(C)C)CC4)cc3)nc2n1-c1ccc2c(n1)C(C)(O)CCC2 (single isomer, unassigned) [Compound I-36-1]	WEE1 kinase (Homo sapiens)	no (0)
C=CCn1c(=O)c2cnc(Nc3ccc(C4CCN(C)CC4)cc3)nc2n1-c1ccc2c(n1)C(O)CC2 (centres unmarked) [Compound I-3]	WEE1 kinase (Homo sapiens)	yes (1)
C=CCn1c(=O)c2cnc(Nc3ccc(N4C[C@@H]5CN(C(C)C6CC6)C[C@@H]5C4)cc3)nc2n1-c1ccc2c(n1)C(O)CC2 (some centres unmarked) [Compound I-41]	WEE1 kinase (Homo sapiens)	no (0)
C=CCn1c(=O)c2cnc(Nc3ccc(N4CCC(CN(C)C)CC4)cc3)nc2n1-c1ccc2c(n1)C(O)CC2 (centres unmarked) [Compound I-5]	WEE1 kinase (Homo sapiens)	yes (1)
C=CCn1c(=O)c2cnc(Nc3ccc(N4CC5CC4CN5)cc3)nc2n1-c1ccc2c(n1)C(C)(O)CC2 (centres unmarked) [Compound I-12]	WEE1 kinase (Homo sapiens)	yes (1)
C=CCn1c(=O)c2cnc(Nc3ccc(N4CC5(CCN(CC)CC5)C4)cc3)nc2n1-c1ccc2c(n1)C(O)CC2 (centres unmarked) [Compound I-11]	WEE1 kinase (Homo sapiens)	no (0)
C=CCn1c(=O)c2cnc(Nc3ccc(N4CCN(C)CC4)cc3)nc2n1-c1ccc2c(n1)C(O)CCC2 (centres unmarked) [Compound I-23]	WEE1 kinase (Homo sapiens)	yes (1)

**Query** Dear colleague, could you confirm whether IC50 of C=CCn1c(=O)c2cnc(Nc3ccc(N4C[C@H]5CN(C)C[C@H]5C4)cc3)nc2n1-c1ccc2c(n1)C(O)CC2 (some centres unmarked) [Compound I-31] falls below 4 nM? Thanks.
**Result** yes (1)

----------
study_target: WEE1 kinase (Homo sapiens, UniProt P30291)
Construct: purchased CarnaBiosciences, Inc. 05-177
experiment_summary: Inhibitory effect on WEE1 kinase in vitro (ELISA)
Assay type: biochemical
condition_notes: ATP concentration of Km (12 μM), WEE1 0.15 ng/μL, 60 min, read-out: WEE1 IC50
measured_metric: pIC50
Give bare numbers, as −log10 of the molar value.

Previously resolved entries follow.
compound	pIC50
C=CCn1c(=O)c2cnc(Nc3ccc(N4CCNCC4)cc3)nc2n1-c1ccc2c(n1)C(O)CCC2 (stereo not shown)	8.42
C=CCn1c(=O)c2cnc(Nc3ccc(N4CC5CN(C)CC5C4)cc3)nc2n1-c1ccc2c(n1)C(C)(O)CC2 (stereo not shown)	8.50
C=CCn1c(=O)c2cnc(Nc3ccc(N4CCC5(CC4)CN(C)C5)cc3)nc2n1-c1ccc2c(n1)C(C)(O)CC2 (stereo not shown)	8.47

Shift focus to the following entry.
**Query** Find the recorded pIC50 belonging to C=CCn1c(=O)c2cnc(Nc3ccc(N4CCN(CC5CC5)CC4)cc3)nc2n1-c1ccc2c(n1)C(O)CC2 (stereo not shown) and report it.
**Result** 8.35
